Tested on: TK-10 renal
method-summary: NCI-60 one-dose screen, 48 h
condition-summary: 10 µM unless noted
Compounds without any hit were thinned out: in the full panel of roughly 83,000, 20% have a hit. Calls of active or inactive are those of the source. The calls were made as follows: active = growth percent below 10; inactive = the rest.
Outcomes: active, inactive

| molecule | class-assignment |
| --- | --- |
| c1cnc2[nH]cc(-c3csc(-c4cn(CCCN5CCCCC5)c5ccccc45)n3)c2c1 | inactive |
| CN1CCN(c2nc(-c3csc(-c4cccs4)n3)cc3ccccc23)CC1 | inactive |
| COc1cccc(-c2nn(-c3ccccc3)cc2-c2ccnc(NCCCNS(=O)(=O)c3cccc(F)c3)c2)c1 | inactive |
| Cn1cc(-c2nc(-c3c[nH]c4ncccc34)cs2)c2ccccc21 | inactive |
| c1csc(-c2nc(-c3cc4ccccc4c(N4CCOCC4)n3)cs2)c1 | inactive |
| CC(C)(C)c1[nH]nc2c1C(c1cc3ccccc3[nH]c1=O)Nc1cc(C(=O)OCc3ccccc3)ccc1N2 (centres undefined) | inactive |
| CCCCCCCCNc1cccc2c1C(=O)c1ccccc1C2=O | inactive |
| CCN1CCN(C(=O)[C@]23CCC(C)(C)C[C@H]2C2=CC[C@@H]4[C@@]5(C)CC/C(=N/O)C(C)(C)[C@@H]5CC[C@@]4(C)[C@]2(C)CC3)CC1 | inactive |
| O=[N+]([O-])c1ccc(N/N=C(\C(=N/Nc2ccc([N+](=O)[O-])cc2[N+](=O)[O-])c2ccccc2)c2ccccc2)c([N+](=O)[O-])c1 | active |
